The measured values listed here are drawn from patent US20260274833A1.

Target: CDK2 (Homo sapiens)
Construct: endogenous in cells; host or cells: OVCAR3 cells
Assay: Phospho-RB measurement in OVCAR3 cells (HTRF phospho-RB cellular kit)
Type: cell-based
Settings: inhibition of RB phosphorylation at S807/811 (HTRF, TR-FRET ratio 665/620), 24 h compound treatment, 0.3 to 10,000 nM
Endpoint: IC50 (nM)

| Smiles structure | IC50 / nM |
| --- | --- |
| CN(C)S(=O)(=O)Nc1cccc(-c2nc(C(C)(C)C)sc2-c2ccnc(NC3CC4(C3)CS(=O)(=O)C4)n2)c1F | 1540 |
| CCOc1cccc2c1CN(S(=O)(=O)Nc1cccc(-c3nc(C(C)(C)C)sc3-c3ccnc(NC4CC5(C4)CS(=O)(=O)C5)n3)c1F)C2 | 69.2 |
| CC(C)(C)c1nc(-c2cccc(NS(=O)(=O)N3Cc4ccccc4C3)c2F)c(-c2ccnc(NC3CCN(S(C)(=O)=O)CC3)n2)s1 | 88.9 |
| COc1cccc2c1CN(S(=O)(=O)Nc1cccc(-c3nc(C(C)(C)C)sc3-c3ccnc(N[C@H]4[C@@H]5CS(=O)(=O)C[C@@H]54)n3)c1F)C2 | 35.5 |

1 = C[C@H]1c2ccccc2CN1S(=O)(=O)Nc1cccc(-c2nc(C(C)(C)C)sc2-c2ccnc(NC3CCN(S(C)(=O)=O)CC3)n2)c1F
2 = CC(C)(C)c1nc(-c2cccc(NS(=O)(=O)N3Cc4ccnc(O)c4C3)c2F)c(-c2ccnc(NC3CCN(S(C)(=O)=O)CC3)n2)s1
## Input Select one: 1 or 2 . Criterion: greater recorded IC50. Write down the label attached to your selection.
## Output 2
